# TGT: the molecule itself
# PROCEDURE_DETAILS: native gel or EMSA; NativePAGE Bis-Tris gel; MBP-ALAD proteins expressed along with the isc operon in E. coli and purified anaerobically
MEASURED_PROPERTY: stoichiometry N

protein="MBP-ALAD K252M (enzyme, human, UniProt P13716 1-330, looked up, aminolevulinic acid dehydratase (ALAD), human; source: E. coli BL21(DE3), expressed along with the isc operon, purified anaerobically (amylose resin); not shown: MBP, N-terminal, kept) MQPQSVLHSGYFHPLLRAWQTATTTLNASNLIYPIFVTDVPDDIQPITSLPGVARYGVKRLEEMLRPLVEEGLRCVLIFGVPSRVPKDERGSAADSEESPAIEAIHLLRKTFPNLLVACDVCLCPYTSHGHCGLLSENGAFRAEESRQRLAEVALAYAKAGCQVVAPSDMMDGRVEAIKEALMAHGLGNRVSVMSYSAKFASCFYGPFRDAAKSSPAFGDRRCYQLPPGARGLALRAVDRDVREGADMLMVMPGMPYLDIVREVKDKHPDLPLAVYHVSGEFAMLWHGAQAGAFDLKAAVLEAMTAFRRAGADIIITYYTPQLLQWLKEE" observed_value=6
